B1: KRT33B (parent)
chain: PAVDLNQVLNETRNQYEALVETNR

variants of: B1; test: protein stability index of a GFP-peptide fusion (GPS, HEK-293T) (PSI 1-6); higher = more stable; settings: c terminus: a fixed tail appended;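 also: lentivirally expressed fusions sorted by FACS into six bins by GFP to DsRed ratio, PSI derived from sequencing read proportions per bin multiplied by bin number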
The entries below come with measured protein stability index values attached.
TEST_READOUT: protein stability index

>>> readout_value("Q15Y")
3.23
>>> readout_value("N23M")
3.29
>>> readout_value("N14G")
3.32
>>> readout_value("N10I")
2.64
>>> readout_value("Q15K")
4.06
>>> readout_value("R24H")
4.24
>>> readout_value("N14I")
2.02
>>> readout_value("N10S")
3.31
>>> readout_value("E21T")
4.06
>>> readout_value("Q7L")
4.06
>>> readout_value("A2I")
2.84
>>> readout_value("V3W")
4.12
>>> readout_value("L9P")
4.72
>>> readout_value("L19G")
4.91
>>> readout_value("N23R")
4.31
>>> readout_value("T22C")
3.78
>>> readout_value("A2G")
3.95
>>> readout_value("N6F")
2.31
>>> readout_value("L9V")
4.65
>>> readout_value("P1L")
3.46
>>> readout_value("N6Q")
2.83
>>> readout_value("P1M")
3.71

Data origin, for the record: the supplement of paper PMC10567573
